Data provenance: paper PMC9911399

Biological target: T1, RBFOX1 RRM RbFoxmut (Fox-RRM*) (Homo sapiens, UniProt Q9NWB1 109-208, R118D;E147R;N151S;E152T)
T1 sequence: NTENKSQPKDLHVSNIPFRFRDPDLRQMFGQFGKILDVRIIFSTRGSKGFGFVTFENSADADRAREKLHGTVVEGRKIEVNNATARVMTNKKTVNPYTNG
Test: EMSA; HiTS-Eq, 1 nM pool, 10 min; buffer printed only for the single-RNA assays: 10 mM Tris pH 7.5, 150 mM NaCl, 3.4 mM EDTA, 0.001% NP-40, 30 C
Settings: tags: His6 N-terminal (pET28a); label: 5' 32P
Over roughly 16,000 sequences, “ka relative to ugcaugu” has its median near 0.096; the highest 2% begin near 0.35. The list comes from a sample in which the highest values are over-represented; it also holds close analogues and randomly drawn sequences.
REPORTED ENDPOINT: binding signal

[
  {
    "BINDER": "UCCUCCU (DNA:RNA) RNA: GGGAGACCGGAAUUCAGAUUGUCCUCCUCCUUUAAAUCCCGUCGUAGCCACCA DNA 1: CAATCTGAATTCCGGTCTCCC DNA 2: TGGTGGCTACGACGGGATT",
    "REPORTED ENDPOINT": "binding signal",
    "ASSAY RESULT": "0.0641 KA relative to UGCAUGU"
  }
]

Now for a further binder.
Input: # input binder: UCAUCAU (DNA:RNA) RNA: GGGAGACCGGAAUUCAGAUUGUCCUCAUCAUUUAAAUCCCGUCGUAGCCACCA DNA 1: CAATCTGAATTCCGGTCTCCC DNA 2: TGGTGGCTACGACGGGATT ; wanted: its binding signal
Output: 0.0991 KA relative to UGCAUGU
